Tested on: SARS-CoV-2
protocol-summary: Intracellular viral antigen (N protein) accumulation by immunofluorescence, A549-ACE2 cells
Format: cell-based
measurement-conditions: Severe acute respiratory syndrome coronavirus 2; A549-ACE2, MOI 0.005, 48 h, N protein signal; read-out: EC50
pEC50: −log10 of the molar value.

structure-smiles | pEC50
CCCCCCOC(=O)[C@H](CCC(=O)NCCC1CCN(Cc2ccccc2)CC1)NC(=O)c1coc(C)n1 | 5.74

* * *

Measured minimal effective concentration values are reported for all entries that follow.
Test system: SARS-CoV-2 in Vero-E6 cells
protocol-summary: microbe, parasite or virus in culture
Format: cell-based
measurement-conditions: Severe acute respiratory syndrome coronavirus 2, Vero C1008, 72 h, read-out: PC min real

structure-smiles | readout-unit | minimal effective concentration
CCCCCCOC(=O)[C@H](CCC(=O)NCCC1CCN(Cc2ccccc2)CC1)NC(=O)Cc1cc2ccc(Cl)cc2s1 | µM | 6
CCCCCCOC(=O)[C@H](CCC(=O)NCCC1CCN(Cc2ccccc2)CC1)NC(=O)OC(C)(C)C | µM | 12.4
CCCCCCOC(=O)[C@H](CCC(=O)NCCC1CCN(Cc2ccccc2)CC1)NC(=O)c1cc2ccccc2s1 | µM | 12.3
CCCCCCOC(=O)[C@H](CCC(=O)NCCC1CCN(Cc2ccccc2)CC1)NC(=O)c1cccs1 | µM | 9.2
